All figures here come from ChEMBL document CHEMBL1157693.

Tested on: Geobacillus stearothermophilus
experiment_summary: Antibacterial activity against Bacillus stearothermophilus NCIB 8222 after 72 hrs
Type: functional
measurement_conditions: NCIB 8222, 72 h
endpoint_name: MIC (µg/mL)
Express your answer in µg/mL, writing the number without its unit.

See these solved cases before continuing.
Asked: For the molecule CC1CCCC/C1=N\Nc1nc2ccccc2[nH]c1=O (stereo not given) , give its measured MIC value.
Given back: 7.8

Asked: For the molecule `O=C1Nc2ccc(Cl)cc2/C1=N/Nc1nc2ccccc2[nH]c1=O` , give its measured MIC value.
Given back: 7.8

Asked: For the molecule `C/C(=N\Nc1nc2ccccc2[nH]c1=O)c1cc2cc(Br)ccc2oc1=O` , give its measured MIC value.
Given back: 7.8

Asked: For the molecule `O=c1[nH]c2ccccc2nc1NN=C1c2ccccc2Cc2ccccc21` , give its measured MIC value.
Given back: 15.6

Continuing:
Asked: For the molecule `C/C(=N\Nc1nc2ccccc2[nH]c1=O)c1cc2cc(Cl)ccc2oc1=O` , give its measured MIC value.
Given back: 7.8

Asked: For the molecule `CCC(CC)=NNc1nc2ccccc2[nH]c1=O` , give its measured MIC value.
Given back: 7.8

Asked: For the molecule `O=c1[nH]c2ccccc2nc1NN=C1CCCC1` , give its measured MIC value.
Given back: 62.5

----------
System: Candida albicans
experiment_summary: Antifungal activity against Candida albicans after 3 days by agar well diffusion method
Format: functional
endpoint_name: inhibition zone (IZ) (mm)
Express your answer in mm, writing the number without its unit.

See these solved cases before continuing.
Asked: For the compound `C/C(=N\Nc1nc2ccccc2[nH]c1=O)c1cc2ccccc2oc1=O` , give its measured inhibition zone (IZ) value.
Given back: 29

Asked: For the compound `O=C1Nc2ccccc2/C1=N/Nc1nc2ccccc2[nH]c1=O` , give its measured inhibition zone (IZ) value.
Given back: 20

Asked: For the compound O=c1[nH]c2ccccc2nc1N/N=C1\CCCCC1Br (configuration not stated) , give its measured inhibition zone (IZ) value.
Given back: 19

Asked: For the compound `O=c1[nH]c2ccccc2nc1NN=C1CCCCC1` , give its measured inhibition zone (IZ) value.
Given back: 21

Asked: For the compound `C/C(=N\Nc1nc2ccccc2[nH]c1=O)c1cc2cc(Br)ccc2oc1=O` , give its measured inhibition zone (IZ) value.
Given back: 21

Asked: For the compound `C/C(=N\Nc1nc2ccccc2[nH]c1=O)c1cc2cc(Cl)ccc2oc1=O` , give its measured inhibition zone (IZ) value.
Given back: 14

Continuing:
Asked: For the compound `CC/C(C)=N\Nc1nc2ccccc2[nH]c1=O` , give its measured inhibition zone (IZ) value.
Given back: 22

Asked: For the compound `CCC(CC)=NNc1nc2ccccc2[nH]c1=O` , give its measured inhibition zone (IZ) value.
Given back: 18

----------
System: Bacillus subtilis
experiment_summary: Antibacterial activity against Bacillus subtilis NCIB 3610 after 24 hrs by agar well diffusion method; also: test concentration or dose not given here
Format: functional
endpoint_name: inhibition zone (IZ) (mm)
Express your answer in mm, writing the number without its unit.

See these solved cases before continuing.
Asked: For the compound `NNc1nc2ccccc2[nH]c1=O` , give its measured inhibition zone (IZ) value.
Given back: 20

Asked: For the compound `Cc1ccc2c(c1)/C(=N/Nc1nc3ccccc3[nH]c1=O)C(=O)N2` , give its measured inhibition zone (IZ) value.
Given back: 15

Continuing:
Asked: For the compound O=c1[nH]c2ccccc2nc1N/N=C1\CCCCC1Cl (stereo not given) , give its measured inhibition zone (IZ) value.
Given back: 16

Asked: For the compound CN[C@@H]1[C@H](O[C@H]2[C@H](O[C@H]3[C@H](O)[C@@H](O)[C@H](N=C(N)N)[C@@H](O)[C@@H]3N=C(N)N)O[C@@H](C)[C@]2(O)C=O)O[C@@H](CO)[C@H](O)[C@H]1O [STREPTOMYCIN] , give its measured inhibition zone (IZ) value.
Given back: 20
